Reported melting point by item:
Counter-ions that a name gives are not always drawn.

The cases that follow already have their melting point on record.
Cl.O=c1cc(-c2ccc(C(F)(F)F)nc2)ccn1-c1ccc2c3c([nH]c2c1)CCN1CCCC31 (stereo not drawn) :: 205 to 215 °C
Cc1ccc(COc2ccn(-c3ccc4c5c(n(C)c4c3)CCN3CCCCC53)c(=O)c2)cn1 (stereo not drawn) (as salt: hydrochloride) [Example 23, Dihydrochloride] :: 210 to 214 °C
Cl.O=c1cc(OCc2ccc(F)cc2F)ccn1-c1ccc2c3c([nH]c2c1)CCN1CCCC31 (stereo not drawn) :: 210 to 220 °C
Cl.Cn1c2c(c3ccc(-n4ccc(OCc5ccccc5)cc4=O)cc31)C1CCCCN1CC2 (stereo not drawn) :: 250 to 253 °C
Cn1c2c(c3ccc(-n4ccc(OCc5ccc(F)cn5)cc4=O)cc31)CN1CCCC1C2 (stereo not drawn) (as salt: hydrochloride) :: 290 to 293 °C
Cl.Cn1c2c(c3ccc(-n4ccc(OCc5ccccc5)cc4=O)nc31)C1CCCN1CC2 (stereo not drawn) :: 130 to 140 °C
Cl.O=c1cc(-c2ccc(C(F)(F)F)cc2)ccn1-c1ccc2c3c([nH]c2c1)CC1CCCN1C3 (stereo not drawn) :: 275 to 285 °C
Cl.Cn1c2c(c3ccc(-n4ccc(OCc5ccc(Cl)cn5)cc4=O)cc31)CCN1CCCCC21 (stereo not drawn) :: 204 to 208 °C

Task: Give the value of melting point reported for the following: Cl.Cn1c2c(c3ccc(-n4ccc(OCc5ccccc5)cc4=O)cc31)CCN1CCCC21 (stereo not drawn) [Example 2]
Output: 167 to 170 °C
